Reference source for all entries: patent US5126336A

Readings of ED50 for the listed compounds
tested on: S. aureus Smith; assay: In vivo antibacterial activity, S. aureus Smith infection; conditions: Staphylococcus aureus, mice, im just after bacterial challenge, read-out: PD50

| COMPOUND | ENDPOINT VALUE |
| --- | --- |
| CO/N=C(\C(=O)NC1C(=O)N2C(C(=O)[O-])=C(/C=C\C[N+]3(C)Cc4cc(O)c(O)cc4C3)CS[C@H]12)c1csc(N)n1 (some centres unmarked) [Compound Ie] | 0.72 mg/kg |
| CC(C)(O/N=C(\C(=O)NC1C(=O)N2C(C(=O)[O-])=C(/C=C\C[N+]3(C)Cc4cc(O)c(O)cc4C3)CS[C@H]12)c1csc(N)n1)C(=O)O (some centres unmarked) [Compound Ib] | 3.8 mg/kg |
| CO/N=C(\C(=O)NC1C(=O)N2C(C(=O)[O-])=C(/C=C/C[N+]3(C)Cc4cc(O)c(O)cc4C3)CS[C@H]12)c1csc(N)n1 (some centres unmarked) [Compound Id] | 0.33 mg/kg |

Request - read-out ED50 | tested on S. aureus Smith | compound CC(C)(O/N=C(\C(=O)NC1C(=O)N2C(C(=O)[O-])=C(/C=C/C[N+]3(C)Cc4cc(O)c(O)cc4C3)CSC12)c1csc(N)n1)C(=O)O (centres unmarked) [Compound Ia]
0.86 mg/kg

Request - read-out ED50 | tested on S. aureus Smith | compound CC(C)(O/N=C(\C(=O)NC1C(=O)N2C(C(=O)O)=C(/C=C/Cn3ccc4cc(=O)c(O)cc-4c3)CS[C@H]12)c1csc(N)n1)C(=O)O (some centres unmarked) [Iv]
0.98 mg/kg
